Test system: plasma esterases
MEASUREMENT_DESCRIPTION: Stability in human plasma
Type: in vitro ADME
SETTINGS: human; plasma; preliminary data; read-out: Plasma hydrolysis half-life (converted)

COMPOUND: Cc1cccc(C)c1OCC(=O)NC(Cc1ccccc1)[C@H](CC(Cc1ccccc1)NC(=O)[C@H](C(C)C)N1CCCNC1=O)OC(=O)COCC(=O)O (stereo partly shown)
TARGET_UNDER_TEST: plasma esterases
half-life: ~2 h
